Values were extracted from patent US20230286929A1.

The following molecules are shown together with reported pIC50 values.
- Tested on: HBsAg
- assay-overview: PHH HBV natural infection assay, HBsAg (alphalisa)
- Format: cell-based
- experimental-parameters: Hepatitis B virus, Hepatocyte, 72 h, read-out: HBsAg IC50
pIC50: −log10 of the molar value.

[
  {
    "molecule": "CS(=O)(=O)c1ccc(C(=O)NC23CC(c4nc5cc(Cl)ccc5o4)(C2)C3)s1",
    "pIC50": 5.02
  },
  {
    "molecule": "CS(=O)(=O)c1cccc(C(=O)NC23CC(c4nc5ccc(Cl)cc5o4)(C2)C3)c1",
    "pIC50": 5.65
  },
  {
    "molecule": "O=C(NC12CC(c3nc4cc(Cl)ccc4o3)(C1)C2)c1ccnc(C(F)(F)F)c1",
    "pIC50": 5.69
  },
  {
    "molecule": "O=C(CN1CCCCS1(=O)=O)NC12CCC(c3nc4cc(Cl)ccc4o3)(CC1)CC2",
    "pIC50": 5.69
  },
  {
    "molecule": "O=C(NC12CC(c3nc4cc(Cl)ccc4o3)(C1)C2)c1ccc(C(F)(F)F)nc1",
    "pIC50": 5.06
  },
  {
    "molecule": "CS(=O)(=O)c1ccc(C(=O)NC23CC(c4nc5ccc(F)cc5o4)(C2)C3)o1",
    "pIC50": 5.06
  },
  {
    "molecule": "O=C(NC12CC(c3nc4cc(Cl)ccc4o3)(C1)C2)c1ccc(S(=O)(=O)C2CC2)o1",
    "pIC50": 6.16
  },
  {
    "molecule": "O=C(NC12CCC(c3nc4cc(Cl)ccc4o3)(CC1)CC2)C1CCCS1(=O)=O (stereo not shown)",
    "pIC50": 5.56
  },
  {
    "molecule": "CSc1ccc(C(=O)NC23CC(c4nc5cc(Cl)ccc5o4)(C2)C3)o1",
    "pIC50": 5.09
  },
  {
    "molecule": "C[S+]([O-])c1ccc(C(=O)NC23CC(c4nc5cc(Cl)ccc5o4)(C2)C3)o1 (stereo not shown)",
    "pIC50": 5.19
  },
  {
    "molecule": "O=C(NC12CC(c3nc4cc(Cl)ccc4o3)(C1)C2)c1ccc(S(=O)(=O)CC2COC2)o1",
    "pIC50": 5.29
  },
  {
    "molecule": "O=C(NC12CC(c3nc4cc(Cl)ccc4o3)(C1)C2)C1CC2(C1)CS(=O)(=O)C2",
    "pIC50": 5.01
  },
  {
    "molecule": "O=C(NC12CC(c3nc4cc(Cl)ccc4o3)(C1)C2)c1cccc(Br)c1",
    "pIC50": 5.58
  },
  {
    "molecule": "CS(=N)(=O)Cc1ccc(C(=O)NC23CC(c4nc5ccc(Cl)cc5o4)(C2)C3)o1 (stereo not shown)",
    "pIC50": 5.16
  },
  {
    "molecule": "O=C(NC12CC(c3nc4ccc(Cl)cc4o3)(C1)C2)c1ccnc(S(=O)(=O)C2CC2)c1",
    "pIC50": 5.18
  },
  {
    "molecule": "O=C(NC12CCC(c3nc4cc(Cl)ccc4o3)(CC1)CC2)C1CCS(=O)(=O)C1 (stereo not shown)",
    "pIC50": 5.38
  },
  {
    "molecule": "O=C(NC12CCC(c3nc4cc(Cl)ccc4o3)(CC1)CC2)C1CC2(C1)CS(=O)(=O)C2",
    "pIC50": 5.77
  },
  {
    "molecule": "O=C(NC12CC(c3nc4cc(Cl)ccc4o3)(C1)C2)c1cncc(C(F)(F)F)c1",
    "pIC50": 5.28
  },
  {
    "molecule": "O=C(CC1CCCS1(=O)=O)NC12CCC(c3nc4cc(Cl)ccc4o3)(CC1)CC2 (stereo not shown)",
    "pIC50": 5.64
  },
  {
    "molecule": "O=C(NC12CC(c3nc4cc(Cl)ccc4o3)(C1)C2)c1cnc(C(F)(F)F)nc1",
    "pIC50": 5.20
  },
  {
    "molecule": "CS(=O)(=O)Cc1ccc(C(=O)NC23CC(c4nc5cc(Cl)ccc5o4)(C2)C3)o1",
    "pIC50": 6.18
  },
  {
    "molecule": "CS(=O)(=O)Cc1ccc(C(=O)NC23CC(c4nc5cnc(Cl)cc5o4)(C2)C3)o1",
    "pIC50": 5.12
  },
  {
    "molecule": "C[S@+]([O-])c1ccc(C(=O)NC23CC(c4nc5cc(Cl)ccc5o4)(C2)C3)o1",
    "pIC50": 5.62
  },
  {
    "molecule": "N=S(=O)(c1ccc(C(=O)NC23CC(c4nc5cc(Cl)ccc5o4)(C2)C3)o1)C1CC1 (stereo not shown)",
    "pIC50": 6.08
  },
  {
    "molecule": "O=C(NC12CC(c3nc4cc(Cl)cnc4o3)(C1)C2)c1ccnc(C(F)(F)F)c1",
    "pIC50": 5.05
  },
  {
    "molecule": "NS(=O)(=O)Cc1ccc(C(=O)NC23CC(c4nc5cc(Cl)ccc5o4)(C2)C3)o1",
    "pIC50": 5.30
  },
  {
    "molecule": "CCCC(=O)NS(=O)(=O)c1ccc(C(=O)NC23CC(c4nc5cc(Cl)ccc5o4)(C2)C3)o1",
    "pIC50": 5.44
  },
  {
    "molecule": "CS(=O)(=O)Cc1ccc(C(=O)NC23CC(c4nc5ccc(Cl)cc5o4)(C2)C3)o1",
    "pIC50": 6.19
  },
  {
    "molecule": "O=C(NC12CCC(c3nc4cc(Cl)ccc4o3)(CC1)CC2)C1CCCS(=O)(=O)C1 (stereo not shown)",
    "pIC50": 5.56
  },
  {
    "molecule": "O=C(NC12CCC(c3nc4cc(Cl)ccc4o3)(CC1)CC2)c1ccc(C(F)(F)F)o1",
    "pIC50": 5.11
  },
  {
    "molecule": "O=C(NC12CC(c3nc4cc(Cl)ccc4o3)(C1)C2)c1cc(Cl)ccc1Cl",
    "pIC50": 5.00
  }
]

---

- System: HBsAg
- assay-overview: PHH HBV natural infection assay, HBsAg (alphalisa)
- Format: cell-based
- experimental-parameters: Hepatitis B virus, Hepatocyte, 72 h, read-out: HBsAg IC50
# binning rule on IC50: label 0 = under 3 µM, label 1 = from 3 µM up to 4 µM, label 2 = 4 µM and over

[
  {
    "compound": "O=C(NC12CC(c3nc4cc(Cl)ccc4o3)(C1)C2)c1ccc(S(=O)(=O)CC2CC2)o1 [Example 7]",
    "group": "label 0"
  },
  {
    "compound": "N=S(=O)(CC1CC1)c1ccc(C(=O)NC23CC(c4nc5cc(Cl)ccc5o4)(C2)C3)o1 (stereo not shown) [Example 13]",
    "group": "label 0"
  },
  {
    "compound": "O=C(NC12CC(c3nc4ccc(Cl)cc4o3)(C1)C2)c1ccc(S(=O)(=O)C2CC2)o1 [Example 33]",
    "group": "label 0"
  },
  {
    "compound": "CS(=O)(=O)Cc1ccc(C(=O)NC23CC(c4nc5cc(Cl)cnc5o4)(C2)C3)o1 [Example 41]",
    "group": "label 2"
  },
  {
    "compound": "O=C(NC12CC(c3nc4cc(Cl)ccc4o3)(C1)C2)c1ccc([S+]([O-])C2CC2)o1 (stereo not shown) [Example 4]",
    "group": "label 0"
  },
  {
    "compound": "C[S@@](=N)(=O)c1ccc(C(=O)NC23CC(c4nc5cc(Cl)ccc5o4)(C2)C3)o1 [Example 12-a]",
    "group": "label 0"
  },
  {
    "compound": "O=C(CC1CCCS(=O)(=O)C1)NC12CCC(c3nc4cc(Cl)ccc4o3)(CC1)CC2 (stereo not shown) [Example 54]",
    "group": "label 1"
  },
  {
    "compound": "O=C(NC12CC(c3nc4cc(Cl)ccc4o3)(C1)C2)c1ccc(Br)o1 [Example 8]",
    "group": "label 2"
  },
  {
    "compound": "NS(=O)(=O)c1ccc(C(=O)NC23CC(c4nc5cc(Cl)ccc5o4)(C2)C3)o1 [Example 10]",
    "group": "label 2"
  },
  {
    "compound": "O=C(NC12CC(c3nc4ccc(Cl)cc4o3)(C1)C2)c1ccc(S(=O)(=O)CC2CC2)o1 [Example 34]",
    "group": "label 1"
  },
  {
    "compound": "O=C(NC12CC(c3nc4cc(Cl)ccc4o3)(C1)C2)c1ccc(C(F)(F)F)nn1 [Example 27]",
    "group": "label 1"
  },
  {
    "compound": "C[S@](=N)(=O)c1ccc(C(=O)NC23CC(c4nc5cc(Cl)ccc5o4)(C2)C3)o1 [Example 12-b]",
    "group": "label 0"
  },
  {
    "compound": "CS(=N)(=O)c1cccc(C(=O)NC23CC(c4nc5cc(Cl)ccc5o4)(C2)C3)c1 (stereo not shown) [Example 29]",
    "group": "label 1"
  },
  {
    "compound": "CS(=N)(=O)c1ccc(C(=O)NC23CC(c4nc5ccc(Cl)cc5o4)(C2)C3)o1 (stereo not shown) [Example 35]",
    "group": "label 2"
  },
  {
    "compound": "O=C(NC12CC(c3nc4cc(Cl)ccc4o3)(C1)C2)c1ccc(Br)cc1 [Example 20]",
    "group": "label 2"
  }
]
